experimental protocol: in vitro
Type: cell-based
details: human
result type: CC50 at 72 h

Below: 5 compounds and their reported CC50 at 72 h.
{"columns": ["compound", "experimental result"],
 "data": [
  ["CC(C)Cc1sc(-c2nccs2)nc1C(=O)NCc1ccccc1 [Compound C357]", "> 33.3 µM"],
  ["NC(=O)c1ncn([C@@H]2O[C@H](CO)[C@@H](O)[C@H]2O)n1 [ribavirin, reference compound]", "449 µM"],
  ["CCC(O)c1nc(-c2nccs2)sc1CC(C)C (stereo not drawn) [Compound C282-2]", "> 100 µM"],
  ["CC(C)Cc1sc(-c2nccs2)nc1C(=O)NCc1ccc(F)cc1 [Compound W28F]", "36.9 µM"],
  ["CC(C)Cc1sc(-c2nccs2)nc1CNC(=O)c1nc(-c2nccs2)sc1CC(C)C [Compound C503]", "> 100 µM"]
]}

Moving on to another compound below.
Return reported CC50 at 72 h; argument: Cc1cnc(-c2nc(C(=O)NCc3ccc(F)cc3)c(CC(C)C)s2)s1 [Compound W28MF]
> 100 µM
